assayed_system: PARP-1 enzyme (Homo sapiens)
Construct: made in house
Sequence (P09874 whole entry): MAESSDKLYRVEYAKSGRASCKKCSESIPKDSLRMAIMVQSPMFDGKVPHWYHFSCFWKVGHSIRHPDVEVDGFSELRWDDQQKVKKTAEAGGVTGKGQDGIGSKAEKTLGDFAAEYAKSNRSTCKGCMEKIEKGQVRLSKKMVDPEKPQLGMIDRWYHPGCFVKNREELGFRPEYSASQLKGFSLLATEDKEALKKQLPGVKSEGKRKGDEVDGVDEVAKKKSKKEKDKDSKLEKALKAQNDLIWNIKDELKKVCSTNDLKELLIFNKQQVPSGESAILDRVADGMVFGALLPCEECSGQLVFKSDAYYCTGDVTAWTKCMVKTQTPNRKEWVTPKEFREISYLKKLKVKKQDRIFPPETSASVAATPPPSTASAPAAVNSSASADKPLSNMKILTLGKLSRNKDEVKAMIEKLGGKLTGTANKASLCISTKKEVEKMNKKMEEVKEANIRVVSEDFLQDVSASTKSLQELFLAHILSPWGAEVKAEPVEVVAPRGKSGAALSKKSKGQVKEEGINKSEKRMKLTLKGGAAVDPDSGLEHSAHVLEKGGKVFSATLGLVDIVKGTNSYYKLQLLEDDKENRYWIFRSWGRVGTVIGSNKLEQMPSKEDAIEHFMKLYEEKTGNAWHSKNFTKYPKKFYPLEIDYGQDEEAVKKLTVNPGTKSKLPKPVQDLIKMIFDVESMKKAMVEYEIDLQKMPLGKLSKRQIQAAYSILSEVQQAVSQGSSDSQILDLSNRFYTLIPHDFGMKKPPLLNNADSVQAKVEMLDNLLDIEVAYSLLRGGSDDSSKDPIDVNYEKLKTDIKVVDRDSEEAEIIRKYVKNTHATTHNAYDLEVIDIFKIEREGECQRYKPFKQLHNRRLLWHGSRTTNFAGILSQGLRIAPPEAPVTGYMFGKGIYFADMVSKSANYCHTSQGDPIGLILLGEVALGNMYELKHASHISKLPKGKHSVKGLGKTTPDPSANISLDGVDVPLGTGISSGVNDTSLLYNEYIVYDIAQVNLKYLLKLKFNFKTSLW
test_protocol: In vitro Scintillation Proximity Assay (SPA) for PARP-1 inhibitory activity
Assay type: biochemical
study_conditions: nicked DNA activated PARP-1, [3H]-NAD+, biotinylated histones; read-out: In vitro SPA pIC50 (converted)
Experimental: Compounds of the present invention were tested in an in vitro assay based on SPA technology (proprietary to Amersham Pharmacia Biotech). […] The beads were allowed to sediment for at least 15 min. and plates transferred to a TopCountNXT™ (Packard) for scintillation counting, values were expressed as counts per minute (cpm). […] For each sample, the amount of cpm was expressed as a percentage of the mean cpm value of the controls. […]
I'd appreciate it if you could label each record using IC50 and these ranges: bin 1 = under 200 nM, bin 2 = from 200 nM up to 400 nM, bin 3 = 400 nM and over

Worked set:
compound | assayed_system | cat
Cc1cc2cc(C(NCCC(=O)c3ccccc3)c3ccccc3)ccc2[nH]c1=O (centres unmarked) [Compound 27] | PARP-1 enzyme (Homo sapiens) | bin 3
Cc1cc2cc(C(C#N)c3ccccc3)ccc2[nH]c1=O (centres unmarked) [Compound 4] | PARP-1 enzyme (Homo sapiens) | bin 3

Each compound maps to one class by IC50. Which class for CCc1cc2cc(/C(=C\CN(C)C)c3ccccc3)ccc2[nH]c1=O [Compound 140] ? bin 3

Please classify: CCc1cc2cc(C(c3ccccc3C)N3CCC(NCCOC)CC3)ccc2[nH]c1=O (centres unmarked) [Compound 82] bin 2

Consider CCc1cc2cc(C(c3ccc(C(F)(F)F)cc3F)N3CCC(NCCOC)CC3)ccc2[nH]c1=O (centres unmarked) [Compound 35] . To which IC50 class does it belong? bin 3

Band of CCc1cc2cc(C(OCCN(C)C)c3ccccc3)ccc2[nH]c1=O (centres unmarked) [Compound 28] ? bin 2

Which IC50 category applies to Cc1cc2cc(C(NC=O)c3ccc(F)cc3)ccc2[nH]c1=O (centres unmarked) [Compound 102] here? bin 2

For this compound, which bin applies? CCc1cc2cc(C(c3ccc4c(c3)OCO4)N3CCC(NCCOC)CC3)ccc2[nH]c1=O (centres unmarked) [Compound 54] bin 1

# bin label for CCc1cc2cc(C(=C3CCNCC3)c3ccc4c(c3)OCCO4)ccc2[nH]c1=O [Compound 131] bin 1

Pick a category. Item: CCc1cc2cc(C(CCN3CCCCC3)c3ccc4c(c3)OCCO4)ccc2[nH]c1=O (centres unmarked) [Compound 16] bin 1

Please report the category associated with Cc1cc2cc(C(NC=O)c3ccc4c(c3)OCO4)ccc2[nH]c1=O (centres unmarked) [Compound 99] , nothing else. bin 2

Pick a category. Item: CCc1cc2cc(C(c3ccc(C(F)(F)F)cc3)N3CCC(NCCOC)CC3)ccc2[nH]c1=O (centres unmarked) [Compound 70] bin 3

Lab note: which band did CCc1cc2cc(C(c3c(Cl)cccc3Cl)N3CCC(NCCOC)CC3)ccc2[nH]c1=O (centres unmarked) [Compound 73] land in? bin 1

Hey, which category is CCc1cc2cc(C(O)c3ccccc3)ccc2[nH]c1=O (centres unmarked) [Compound 110] in, do you know? bin 2

Field: class (IC50) — entry: CCc1cc2cc(C(O)c3ccc4c(c3)OCO4)ccc2[nH]c1=O (centres unmarked) [Compound 12] bin 1

Lab note: sort COCCNC1CCN(C(c2cccc(C(F)(F)F)c2)c2ccc3[nH]c(=O)c4ccccc4c3c2)CC1 (centres unmarked) [Compound 48] into the matching IC50 band. bin 1

The entry to classify is COCCNC1CCN(C(c2ccc3c(c2)OCCO3)c2ccc3[nH]c(=O)c4ccccc4c3c2)CC1 (centres unmarked) [Compound 11] ; which class holds it? bin 1

Category of CCc1nc2cc(C(NCCCN3CCCCC3)c3ccccc3)ccc2[nH]c1=O (centres unmarked) [Compound 51] : bin 3

Which of the defined bands does the recorded IC50 of O=c1[nH]c2ccc(C(NCCN3CCC(c4n[nH]c5cc(F)ccc45)CC3)c3ccc4c(c3)OCCO4)cc2c2ccccc12 (centres unmarked) [Compound 45] sit within? bin 1

Note: place this compound into its band. Item: Cc1cc2cc(C(NC=O)c3ccccc3)ccc2[nH]c1=O (centres unmarked) [Compound 106] bin 3

State the class of the compound shown: CCc1cc2cc(C(c3ccc4c(c3)OCCO4)C3CCN(C/C=C/c4ccccc4)CC3)ccc2[nH]c1=O (centres unmarked) [Compound 14] bin 1

Determine which band this compound sits in: CCc1cc2cc(C(c3ccc(N(C)C)cc3)N3CCC(NCCOC)CC3)ccc2[nH]c1=O (centres unmarked) [Compound 65] bin 2

Bin? CCc1cc2cc(C(CCN(C)C)c3ccccc3)ccc2[nH]c1=O (centres unmarked) [Compound 92] bin 1

Hey, which category is CCc1nc2cc(C(c3ccc(F)cc3)n3ccnc3)ccc2[nH]c1=O (centres unmarked) [Compound 125] in, do you know? bin 3

Where do these numbers come from? They come from patent US8071612B2.
